target: human P2Y12 receptor (Homo sapiens); test: P2Y12 receptor binding assay; conditions: CHO cells with recombinant expression of the human P2Y12 receptor; tritium-labeled 2-methyl-S-ADP; RT, 2 hours
Sequence (Q9H244 whole entry): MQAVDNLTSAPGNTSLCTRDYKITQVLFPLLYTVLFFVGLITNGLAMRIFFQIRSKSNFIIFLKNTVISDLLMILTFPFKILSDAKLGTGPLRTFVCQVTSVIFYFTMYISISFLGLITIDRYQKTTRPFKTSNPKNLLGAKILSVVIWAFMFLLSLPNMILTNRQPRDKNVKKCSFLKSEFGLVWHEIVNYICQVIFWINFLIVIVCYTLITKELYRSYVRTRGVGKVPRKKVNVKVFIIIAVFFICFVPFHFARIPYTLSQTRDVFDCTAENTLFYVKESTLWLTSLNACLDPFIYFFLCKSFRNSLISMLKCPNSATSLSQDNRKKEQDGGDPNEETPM
Measured property: IC50 (nM)

These solved cases illustrate the format of a correct answer.
# Compound, Unit text, IC50
rows = [
    ("CCCCOC(=O)N1CCN(C(=O)[C@H](CP(=O)(O)O)NC(=O)c2cc(N3C[C@@H]4[C@H](C3)[C@H]4C(=O)OCC)nc(-c3ccccc3)n2)CC1 [Example 51]", "nM", 2.5),
    ("CCCOC(=O)N1CCN(C(=O)[C@@H](NC(=O)c2cc(N3C[C@@H]4[C@H](C3)[C@@H]4C(=O)O)nc(-c3ccccc3)n2)C(C)C)CC1 [Example 14]", "nM", 60),
    ("CCCCOC(=O)N1CCN(C(=O)[C@H](CC#N)NC(=O)c2cc(N3C[C@@H]4[C@H](C3)[C@@H]4C(=O)O)nc(-c3ccccc3)n2)CC1 [Example 48]", "nM", 74),
    ("CCCCOC(=O)N1CCN(C(=O)[C@H](Cc2ccccc2)NC(=O)c2cc(N3CC4C(C3)C4C(=O)O)nc(-c3ccccc3)n2)CC1 (stereo partly drawn) [Example 46]", "nM", 961),
]

[I] CCCCOC(=O)N1CCN(C(=O)CNC(=O)c2cc(N3C[C@@H]4[C@H](C3)[C@@H]4C(=O)O)nc(-c3ccccc3)n2)CC1 [Example 33]
[II] CCCCOC(=O)N1CCN(C(=O)[C@@H](NC(=O)c2cc(N3C[C@@H]4[C@H](C3)[C@@H]4C(=O)O)nc(-c3ccccc3F)n2)C(C)C)CC1 [Example 47]
[ask] So which one has the bigger IC50 here, I or II ? API: response body contains the label of the selected item.
[reply] I
(I: 68 nM, II: 12 nM)
